Assign cell viability to each entry below.
- Tested on: P12-Ichikawa
- measurement-notes: cell viability relative to DMSO control; higher = less cytotoxic
- measurement-parameters: RPMI 5 mM glucose + 10% dialyzed FBS; 48 h; 0.569 µM
One number for each entry, in %.

Worked set:
{"columns": ["molecule", "measurement-target", "cell viability (%)"],
 "data": [
  ["CCCCCNC(=O)N1CCC(CN(Cc2ccc(Cl)cc2)Cc2ccc([N+](=O)[O-])s2)C1 (stereo unspecified)", "P12-Ichikawa", 109],
  ["Cc1ccnc2c1NC(=O)c1cccnc1N2C1CC1", "P12-Ichikawa", 104],
  ["C[C@]12CC[C@H]3[C@@H](CCC4=CC(=O)CC[C@@H]43)[C@@H]1CC[C@@H]2OC(=O)CCc1ccccc1", "P12-Ichikawa", 113],
  ["O=C(O)C(=O)c1cn(Cc2ccccc2)c2ccc(-c3ccc(OC(F)(F)F)cc3)cc12", "P12-Ichikawa", 94.4],
  ["CCc1ccc(/C=C2/SC(=S)NC2=O)cc1", "P12-Ichikawa", 87.3],
  ["CC1=CC(=CC(=C1C\\C2=N\\CCN2)C)C(C)(C)C", "P12-Ichikawa", 103],
  ["COc1cccc2c1C(=O)c1c(O)c3c(c(O)c1C2=O)C[C@@](O)(C(=O)CO)C[C@@H]3O[C@H]1C[C@H](N)[C@H](O)[C@H](C)O1", "P12-Ichikawa", 92.2],
  ["CCOC(=O)C(C)OC1=CC=CC2=C1\\C=C/N(CC(=O)NC3=CC=C4OCCOC4=C3)C2=O (stereo unspecified)", "P12-Ichikawa", 92.2],
  ["CCOC(=O)\\C1=C\\[C@]2(CC)CCCN3CCC4=C([C@H]23)[N]1C5=C4C=CC=C5", "P12-Ichikawa", 113],
  ["COC(=O)C\\1=C(C)\\N\\C(=C(/C1C2=CC=CC3=NON=C23)C(=O)OC(C)C)C (stereo unspecified)", "P12-Ichikawa", 88.7]
]}

Moving on to the next molecule.
Return cell viability measured with P12-Ichikawa given this molecule: CCCCOCCOc1nc(-c2ccc(C(=O)O)c(F)c2)sc1C
118
